# Tested on: Swiss albino mice
# Format: in vivo
# condition-notes: oral; dosage level 10X (X=400 mg/kg B.Wt.); observed 15 days
assay-readout: Mortality

molecule | assay-readout | assay-value
COC(=O)C1CCC(=O)N1C(OC(C)=O)C(C)=O (centres unmarked) [MGC-4] | Mortality | 0/10
CC(=O)OC(C(C)=O)N1C(=O)CCC1C(=O)OCc1ccccc1 (centres unmarked) [MGC-6] | Mortality | 10/10
CCCCOC(=O)C1CCC(=O)N1C(O)C(C)=O (centres unmarked) [MGC-2] | Mortality | 10/10
CCOC(=O)C1CCC(=O)N1C(O)C(C)=O (centres unmarked) [MGC-7] | Mortality | 0/10
CCOC(=O)C1CCC(=O)N1C(OC(C)=O)C(C)=O (centres unmarked) [MGC-8] | Mortality | 0/10

Data origin, for the record: patent US6613793B2
